B1: TPR t1 (parent)
chain: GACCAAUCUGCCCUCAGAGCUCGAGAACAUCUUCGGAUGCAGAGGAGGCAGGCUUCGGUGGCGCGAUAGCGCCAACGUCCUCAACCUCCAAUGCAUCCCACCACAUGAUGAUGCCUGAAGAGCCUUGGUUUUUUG

variants of: B1; test: polymerase ribozyme fitness, log enrichment relative to wild type (log ratio); higher = more active; in vitro selection for triplet polymerase activity
Class definitions on polymerase ribozyme fitness (log ratio): low bin (below -4), mid bin (-4 to below -1), high bin (-1 or more)

Here's what some known entries look like.
>>> print(df.to_string())
       sequence_change  class_label
0     C56A C123U C124U     high bin
1  C11A C12A A41G C89U      mid bin

Q. GET /class?item= C12U A103U
A. low bin

Q. GET /class?item= U21A C88A G110A
A. low bin

Q. GET /class?item= A66U U78C C123U
A. high bin

Q. GET /class?item= C40U C49A C94U G117C
A. low bin

Q. GET /class?item= A100C G120A
A. high bin

Q. GET /class?item= U87A C99A C115G G122U C124G
A. low bin

Q. GET /class?item= G10A U96G
A. high bin

Q. GET /class?item= U32C C97A C124U U131A
A. low bin

Q. GET /class?item= A50C G58C C98U C123G
A. high bin

Q. GET /class?item= C12U C79G C89A A121C
A. mid bin

Q. GET /class?item= A27G C85A
A. mid bin

Q. GET /class?item= C15U C115U
A. mid bin

Q. GET /class?item= G39A G47U
A. mid bin

Q. GET /class?item= A26G G60C
A. mid bin

Q. GET /class?item= A43C G48A C56U G63A G113U U125C U131A
A. low bin

Q. GET /class?item= C31U U59G C73U
A. low bin

Q. GET /class?item= U7G U54C U55G
A. high bin

Q. GET /class?item= C13U A29U U78A C80U U96G U116G G120U G122A
A. low bin

Q. GET /class?item= C114A U133A G135C
A. mid bin

Q. GET /class?item= C49A C86G C101A A118U
A. mid bin
